Source listed as patent US20010049373A1.

# System: Caenorhabditis elegans
# Test Details: HTS runs (initial and follow-up): mOD, % Run and visual score (Table 3)
# Format: in vivo
# Condition Info: Initial HTS Run
Measured Attribute: Initial HTS Run Visual Score

1) Fc1ccc(F)c(CNc2cc(Oc3cccc(Cl)c3)ncn2)c1 [AKC 354]; 1AD/B
2) Fc1ccc(Oc2cc(NCc3ccccc3F)ncn2)cc1 [AKC 367]; 2AD/B
3) CCN(C)c1cc(Oc2ccc3ccccc3c2)ncn1 [AKC 350]; Dead
4) NS(=O)(=O)c1cccc(NC(=O)CCN2CCC(c3cccc4[nH]ccc34)CC2)c1 [AKC 377]; 3AD/B
5) CCC(NC(=O)Nc1ccc(NC(=O)C2CCCO2)cc1)c1cccc(S(N)(=O)=O)c1 (centres unmarked) [AKC 405]; 4AD/B
6) CCC1CCCCN1c1cc(Oc2ccc3oc4ccccc4c3c2)ncn1 (centres unmarked) [AKC 109]; 1AD/B!
7) Fc1ccc(Oc2cc(NCc3ccc(C(F)(F)F)cc3)ncn2)cc1 [AKC 358]; Dead
8) FC(F)(F)c1ccccc1CNc1cc(Oc2ccc(-c3ccccc3)cc2)ncn1 [AKC 339]; 1AD/B
9) CN(c1cc(Oc2ccc(-c3ccccc3)cc2)ncn1)C1CCCCC1 [AKC 363]; Dead
10) COc1ccc(Oc2cc(NCc3ccc(C(F)(F)F)cc3)ncn2)cc1 [AKC 357]; 3AD/B
11) CCCCCCCCCCCCNc1cc(Oc2ccccc2OC)ncn1 [AKC 398]; Dead
12) CC(CCc1ccccc1)Nc1cc(Oc2ccc(-c3ccccc3)cc2)ncn1 (centres unmarked) [AKC 149]; Dead
13) Fc1ccc(Oc2cc(N3CCc4ccccc4C3)ncn2)cc1 [AKC 345]; L1
14) Clc1cccc(Oc2cc(NCc3ccccc3Cl)ncn2)c1 [AKC 376]; 2AD/B
15) CCC(C)Nc1cc(Oc2ccc3oc4ccccc4c3c2)ncn1 (centres unmarked) [AKC 349]; 2AD/B!
16) Fc1ccc(Oc2cc(NCc3cccc(C(F)(F)F)c3)ncn2)cc1 [AKC 380]; Dead

* * *

# Tested on: Caenorhabditis elegans
# Test Details: C. elegans L1 larvae dose-response, 5 day visual viability score (Examples 2 and 7)
# Type: in vivo
# Parameters: key: Dead: only stiff L1s (no movement); Dead (L4): worms are dead, but at a later larval stage; majority of worms are L1 (based on size); majority of worms are L2 (based on size); majority of worms are L3 (based on size); majority of worms are L4 (based on size); AD: majority of worms are adult; #AD: 5 adult worms or less; B!: sterile (0-25 progeny); B: low broodsize (25-100 progeny); ˜B: moderate broodsize (100-250 progeny); <: reduced broodsize (250-500 progeny); OK: no effect (˜1000+ progeny)
# Condition Info: 23.3 μM (procedure of Example 2); day 5; Table 3
Measured Attribute: 5 Day Visual Score V2

1. FC(F)(F)c1ccc(CNc2cc(Oc3cccc(Cl)c3)ncn2)cc1 [AKC 356]; Dead
2. Fc1ccc(Oc2cc(NCc3ccc(C(F)(F)F)cc3)ncn2)cc1 [AKC 358]; Dead
3. CCC1CCCCN1c1cc(Oc2ccc3oc4ccccc4c3c2)ncn1 (stereo not drawn) [AKC 109]; L1
4. NS(=O)(=O)c1ccc(NC(=O)CN2CCCC(NC(=O)c3cc4ccccc4o3)C2)cc1 (stereo not drawn) [AKC 348]; Dead
5. CCC(NC(=O)Nc1ccc(NC(=O)C2CCCO2)cc1)c1cccc(S(N)(=O)=O)c1 (stereo not drawn) [AKC 405]; L1
6. CN(Cc1ccccc1)c1cc(Oc2cccc(F)c2)ncn1 [AKC 344]; Dead
7. CCN(C)c1cc(Oc2ccc3ccccc3c2)ncn1 [AKC 350]; L1
8. Fc1ccc(Oc2cc(N3CCc4ccccc4C3)ncn2)cc1 [AKC 345]; L1
9. CCC1CCCCN1c1cc(Oc2ccc(-c3ccccc3)cc2)ncn1 (stereo not drawn) [AKC 148]; Dead
10. FC(F)(F)c1ccc(CNc2cc(Oc3ccccc3Cl)ncn2)cc1 [AKC 360]; Dead
11. C#Cc1cccc(N(CC(=O)Nc2ccc(S(N)(=O)=O)cc2)Cc2cccs2)c1 [AKC 394]; Dead
12. CCCCCCCCCCCCNc1cc(Oc2ccccc2OC)ncn1 [AKC 398]; Dead
13. CC(CCc1ccccc1)Nc1cc(Oc2ccc(-c3ccccc3)cc2)ncn1 (stereo not drawn) [AKC 149]; Dead
14. CCCCCCCCCCCCNc1cc(Oc2ccccc2Cl)ncn1 [AKC 404]; Dead

* * *

# System: Caenorhabditis elegans
# Test Details: HTS runs (initial and follow-up): mOD, % Run and visual score (Table 3)
# Assay type: in vivo
# Condition Info: Follow-up HTS Run
Measured Attribute: Follow-up HTS Run Visual Score

1) COc1ccc(Oc2cc(NCc3ccc(C(F)(F)F)cc3)ncn2)cc1 [AKC 357]; L4/AD/B!
2) FC(F)(F)c1cccc(CNc2cc(Oc3cccc(Cl)c3)ncn2)c1 [AKC 379]; L4/AD/B!
3) Clc1cccc(CNc2cc(Oc3cccc(Cl)c3)ncn2)c1 [AKC 364]; L4/AD/B!
4) CC(C)(C)OC(=O)NCc1ccc(-c2cccc(C(=O)Nc3ccc(S(N)(=O)=O)cc3)c2)cc1 [AKC 390]; L4
5) FC(F)(F)c1ccc(CNc2cc(Oc3ccccc3Cl)ncn2)cc1 [AKC 360]; L4/AD/B!
6) CN(c1cc(Oc2ccc(-c3ccccc3)cc2)ncn1)C1CCCCC1 [AKC 363]; Dead
7) Fc1ccccc1Oc1cc(NCc2cccc(C(F)(F)F)c2)ncn1 [AKC 381]; L4/AD/B!
8) CCC1CCCCN1c1cc(Oc2ccc3oc4ccccc4c3c2)ncn1 (centres unmarked) [AKC 109]; L4/AD/B!
9) Fc1ccc(Oc2cc(NCc3cccc(C(F)(F)F)c3)ncn2)cc1 [AKC 380]; L4/AD/B!
10) CCCCCCCCCCCCNc1cc(Oc2ccccc2Cl)ncn1 [AKC 404]; Dead
11) CCC1CCCCN1c1cc(Oc2ccc(-c3ccccc3)cc2)ncn1 (centres unmarked) [AKC 148]; Dead
12) CC(CCc1ccccc1)Nc1cc(Oc2ccc(-c3ccccc3)cc2)ncn1 (centres unmarked) [AKC 149]; Dead

* * *

# Tested on: Caenorhabditis elegans
# Test Details: HTS runs (initial and follow-up): mOD, % Run and visual score (Table 3)
# Assay type: in vivo
# Condition Info: Initial HTS Run
Measured Attribute: Initial HTS Run Visual Score (AD/B)

1) Fc1ccc(Oc2cc(NCc3cc(F)cc(F)c3)ncn2)cc1; 1
2) FC(F)(F)c1cccc(CNc2cc(Oc3ccccc3Cl)ncn2)c1; 5

* * *

# Test system: C. elegans
# Test Details: C. elegans nematode activity assay, 2-fold dilutions from 140 μM, visual evaluation at Day 4 (Example 3)
# Assay type: in vivo
# Set-up: key: Dead: only stiff L1s (no movement); Dead (L4): worms are dead, but at a later larval stage; majority of worms are L1 (based on size); majority of worms are L2 (based on size); majority of worms are L3 (based on size); majority of worms are L4 (based on size); AD: majority of worms are adult; #AD: 5 adult worms or less; B!: sterile (0-25 progeny); B: low broodsize (25-100 progeny); ˜B: moderate broodsize (100-250 progeny); <: reduced broodsize (250-500 progeny); OK: no effect (˜1000+ progeny)
# Condition Info: 35 μM
Measured Attribute: visual evaluation of viability

1) NCc1ccc(-c2ccccc2)cc1; L1
2) O=C(NCC1CCN(C(=O)NCCC(c2ccccc2)c2ccccc2)CC1)c1ccc(F)cc1F; L3
3) O=C(NCC1CCN(C(=O)NCCC(c2ccccc2)c2ccccc2)CC1)c1cc(F)cc(F)c1; L3
4) O=C(NCC1CCN(C(=O)NCCC(c2ccccc2)c2ccccc2)CC1)c1cc(F)c(F)cc1F; L3
5) Cc1ccc2c(Cl)cc(Cl)c(O)c2n1; L1

* * *

# Test system: Caenorhabditis elegans
# Test Details: C. elegans L1 larvae dose-response, 5 day visual viability score (Examples 2 and 7)
# Type: in vivo
# Condition Info: 0.9 μM; viability scored day 5; Table 1
Measured Attribute: 5 Day Visual Score V5

1) CC(C)(C)C1=NOC(c2ccc(-c3ccccc3)cc2)C1C(=O)NCCc1ccccc1F (centres unmarked); #AD/˜B
2) O=C(NCCc1ccccc1F)C1C(c2ccccc2Cl)=NOC1c1ccc(-c2ccccc2)cc1 (centres unmarked); L1
3) Cc1ccc(-c2noc(C3CCC(CNC(=O)Nc4ccc(OC(F)(F)F)cc4)CC3)n2)cc1C (centres unmarked); #AD/˜B

* * *

# System: Caenorhabditis elegans
# Test Details: C. elegans L1 larvae dose-response, 5 day visual viability score (Examples 2 and 7)
# Format: in vivo
# Design: key: Dead: only stiff L1s (no movement); Dead (L4): worms are dead, but at a later larval stage; majority of worms are L1 (based on size); majority of worms are L2 (based on size); majority of worms are L3 (based on size); majority of worms are L4 (based on size); AD: majority of worms are adult; #AD: 5 adult worms or less; B!: sterile (0-25 progeny); B: low broodsize (25-100 progeny); ˜B: moderate broodsize (100-250 progeny); <: reduced broodsize (250-500 progeny); OK: no effect (˜1000+ progeny)
# Condition Info: 0.3 μM; viability scored day 5; Table 1
Measured Attribute: 5 Day Visual Score V6

1. O=C(NCCc1ccccc1F)C1C(c2ccccc2Cl)=NOC1c1ccc(-c2ccccc2)cc1 (centres unmarked); L1
